target: T1, recombinant biotinylated human PAR2 extracellular domain (residues 1-75), N-terminal AviTag, C-terminal Flag … (human, UniProt P55085 26-75, biotin on the AviTag (enzymatic biotinylation))
T1 construct: also called Bio-human-PAR2 ECD; human PAR2 ECD; not shown: N-terminal AviTag (Avidity LLC); C-terminal Flag and poly Histidine tags
T1 sequence (P55085 26-75): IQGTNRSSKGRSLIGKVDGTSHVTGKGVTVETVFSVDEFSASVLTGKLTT
procedure text: HTRF competition with Par0067 IgG, pH 6.0, scFv
measured attribute: pIC50
Conceptually, pIC50 converts a concentration in mol/L into minus its log10.

INSERT INTO results (binder, reported_measurement) VALUES
  ('PaB670108 scFv (scFv, V domains shown, purified scFv; also called ZZ1RD3-H03) VH: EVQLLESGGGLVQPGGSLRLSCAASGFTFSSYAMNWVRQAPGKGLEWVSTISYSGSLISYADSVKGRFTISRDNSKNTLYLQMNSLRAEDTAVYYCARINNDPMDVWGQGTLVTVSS VL: SIELTQPPSVSVSPGQTASITCSGDNLGKKYVQWYQQKPGQSPVLVIYDDSNRPSGIPERFSGSNSGNTATLTISGTQAMDEADYYCQHWHGHHHTGETNVFGGGTKLTVL', 6.83);

Here is another binder to look at.
stdin: Can you share its pIC50? I mean this binder: PaB670098 scFv (scFv, V domains shown, purified scFv; also called ZZ1ODT-G01) VH: EVQLLESGGGLVQPGGSLRLSCAASGFTFSSYAMNWVRQAPGKGLEWVSTISHSGHLHHYADSHKHRFTISRDNSKNTLYLQMNSLRAEDTAVYYCARINNDPMDVWGQGTLVTVSS VL: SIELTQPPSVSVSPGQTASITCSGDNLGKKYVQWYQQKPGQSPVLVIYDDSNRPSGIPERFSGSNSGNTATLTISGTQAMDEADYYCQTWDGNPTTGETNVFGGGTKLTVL
stdout: 6.68
